From: the supplement of paper PMC10127200

Listed here are molecules together with their documented Euclidean distance.
System: FB
Test: Euclidean distance of Cell Painting phenotypic profile (signed KS, 77 features) to DMSO centroid (dimensionless distance); 5 or 10 uM (library dependent); higher = stronger phenotypic change vs DMSO (phenoactivity)
Settings: 48 h

# molecule, target_system, obs_value
data = [
    ("CC(C(=O)O)c1cccc(C(=O)c2ccccc2)c1 (stereo not drawn)", "FB", 0.989),
    ("CC[C@H](C)[C@H](N)C1=N[C@H](C(=O)N[C@@H](CC(C)C)C(=O)N[C@H](CCC(=O)O)C(=O)N[C@H](C(=O)N[C@H]2CCCCNC(=O)[C@H](CC(N)=O)NC(=O)[C@@H](CC(=O)O)NC(=O)[C@H](Cc3cnc[nH]3)NC(=O)[C@@H](Cc3ccccc3)NC(=O)[C@H]([C@@H](C)CC)NC(=O)[C@@H](CCCN)NC2=O)[C@@H](C)CC)CS1", "FB", 0.901),
]

Pending molecule:
[in] Give recorded Euclidean distance with FB for the following molecule: N[C@@]1(C(=O)O)CS(=O)(=O)[C@H]2[C@H](C(=O)O)[C@H]21
[out] 0.749
